systemName: T1, 10E8-GT10.2 epitope scaffold (designed scaffold 10E8-GT10.2 with …, N-linked glycosylation sites added (positions not given))
T1 chain: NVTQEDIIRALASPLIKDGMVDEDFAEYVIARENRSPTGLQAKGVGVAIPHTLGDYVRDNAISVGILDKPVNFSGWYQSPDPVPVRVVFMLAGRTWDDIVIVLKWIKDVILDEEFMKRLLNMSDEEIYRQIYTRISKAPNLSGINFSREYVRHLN
Catalogue of pKd readings, one per entry.
# log scale: pKd equals minus log10 of the concentration in mol/L

Examples from the recorded data:
* MPER18_d21_45.1_v55_m3_B08 (antibody, V domains shown) VH: QVQLQQPGAELVKPGASVKLSCKASGYTFTSYWMHWVKQRPGQGLEWIGMIRPNSGSTNYNERFKSKATLTVDKSSSTAYMQLSSLTSGDSAVYYCAKGGTWTMDYWGQGTSVTVSS VL: DIVMTQSPSSLSVSAGEKVTMICKSSQSLLNSGNQKNYLAWYQQKPGQPPKLLIYGASTRESGVPDRFTGSGSGTDFTLTISSVQAEDLAVYYCQNDHSYPLTFGAGTKLELK | 6.61
* MPER18_d21_45.1_v55_m3_D01 (antibody, V domains shown) VH: QVQLKQSGPGLVQPSQSLSITCTVSGFSLTNYDVHWVRQSPGKGLAWLGVIWSGGSTDYNATFISRLSISKDNSKTQVFFKMNSLQADDTAIYYCARGGGYYEDYAMDYWGQGTSVTVSS VL: NIVLTQSPASLAVSLGQRATISCRASESVDTYGNSFMHWYQLKPGQPPKLLIYLASNLESGVPARFSGSGSRTDFTLTIDPVEADDAATYYCQQNNEDPYTFGGGTELEIQ | 8.47

Next:
Provide one value: measured pKd of MPER18_d21_45.2_v55_15 (antibody, V domains shown) VH: QVQLQESGPGLVKPSETLSLTCTVSGGSISSYSWSWIRQPPGKGLEWIGYISYSGSTNYNPSLKSRVTISVDTSKSQFSLKLSSVTAADTAVYYCAREPPYYDFWNELSMGVGAFDIWGQGTMVTVSS VL: DVLMTQIPLSLPVSLGDQASISCRSSQSIVQNNGNTFLEWFLQKPGQSPKLLIYRVSNRFSGVPDRFSGSGSGTDFTLKISRVEAEDLGVYYCFQGSHVPWTFGGGTKLEIK
8.00
